Reference for the values: PubChem BioAssay (NCI)

growth inhibition listing for selected compounds.
assay: NCI Yeast Anticancer Drug Screen. Data for the cln2 rad14 strain (AID 165);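 also: 0% = growth equal to vehicle treated cultures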; details: S. cerevisiae cln2 rad14 strain, at 50.0 µM, hits give high values
This is part of a sample that, as a whole, favours compounds with a hit. Of some 79,000 tested, about 15% had one in any assay.
Write down the numeric answer in % and omit the unit.

COc1cc([C@H]2OC[C@H]3[C@@H]2CO[C@@H]3c2cc(OC)c3c(c2)OCO3)cc(OC)c1OC; 21.7
O=C1NC(N/N=C\c2ccccc2)=N/C1=C/c1ccc(Cl)cc1; 17.8

Lookup: Given COc1cc2c3cc1Oc1c(OC)c(OC)cc4c1C(Cc1ccc(O)c(c1)-c1cc(ccc1OC)CC3N(C)CC2)N(C)CC4 (stereo not given) , state its recorded growth inhibition.
Found: 0.5

Lookup: Given O=C(Nc1cccc(NC(=O)C(=O)C2CCC3=C(Sc4ccccc4N3)C2=O)n1)C(=O)C1CCC2=C(Sc3ccccc3N2)C1=O (stereo not given) , state its recorded growth inhibition.
Found: 5.2

Lookup: Given C[C@]12CC[C@@H]3c4ccc(OS(N)(=O)=O)cc4CC[C@H]3[C@@H]1CCC2=O , state its recorded growth inhibition.
Found: 8.35

Lookup: Given COc1ccc2cc(CN3CCC(C4CCNCC4)CC3)ccc2c1 , state its recorded growth inhibition.
Found: 14.7
